Reported activity change, negative = thiol reactive values for the following compounds.
# PROTOCOL_DESCRIPTION: Primary fluorescence-based thiol-reactive (MSTI) qHTS assay for identification of artifact compounds. (AID 1845221);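 also: thiol-reactive compounds lower the probe fluorescence signal; nearly all actives have a fitted effect of over 65% in size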
# TEST_SETTINGS: MSTI thiol-reactivity probe, 1 h; series mostly up to 53.8 µM
# From the text: PI: Alexander Tropsha Ph.D. UNC Eshelman School of Pharmacy University of North Carolina, Chapel Hill, North Carolina Hits from high-throughput screening (HTS) of chemical libraries are often false positives due to their interference with the assay detection technology. […] Using these curated datasets, we developed and validated several Quantitative Structure-Interference Relationship (QSIR) models to predict nuisance behavior. […]
Records with an inconclusive call do not appear. Calls of active or inactive are those of the source. Calls follow the shape of the dose curve; as a rule, active = well fitted inhibition curve with a large enough effect; inconclusive = small, poorly fitted or top-dose-only effect; inactive = no such curve, though single readings can be large or run the other way.
QUANTITY_NAME: activity change, negative = thiol reactive

1) CC(=O)O[C@@H](C[C@@H]1C=C(C)C(=O)O1)[C@H](C)[C@H]1CCC2[C@@]3(C)CC[C@H](O[C@@H]4O[C@H](CO)[C@@H](O)[C@H](O)[C@H]4O[C@@H]4O[C@@H](C)[C@H](O)[C@@H](O)[C@H]4O)C(C)(C)C3CC[C@@]2(C)[C@@]12COC(=O)C2 (stereo partly specified) :: 32.4% [at 11.5 µM] (inactive)
2) CC(C)=CCC[C@](C)(O[C@@H]1O[C@H](CO[C@@H]2O[C@@H](CO)[C@H](O)[C@H]2O[C@@H]2OC[C@@H](O)[C@H](O)[C@H]2O)[C@@H](O)[C@H](O)[C@H]1O)[C@H]1CC[C@]2(C)[C@@H]1[C@H](O)CC1[C@@]3(C)CC[C@H](O[C@@H]4O[C@H](CO)[C@@H](O)[C@H](O)[C@H]4O[C@@H]4O[C@H](CO)[C@@H](O)[C@H](O)[C@H]4O)C(C)(C)C3CC[C@]12C (stereo partly specified) :: 132% [at 11.5 µM] (inactive)
3) CC1OC(O[C@@H]2[C@@H](O)[C@H](OC(=O)[C@]34CCC(C)(C)C[C@H]3C3=CCC5[C@@]6(C)CC[C@H](O[C@@H]7O[C@H](C(=O)O)[C@@H](O)[C@H](O[C@@H]8OC[C@@H](O)[C@H](O)[C@H]8O)[C@H]7O[C@@H]7O[C@H](CO)[C@H](O)[C@H](O)[C@H]7O)[C@@](C)(C=O)C6CC[C@@]5(C)[C@]3(C)C[C@H]4O)O[C@H](C)[C@@H]2OC2OC(C)C(OC3OCC(O)C(O)C3O)C(O)C2O)C(O)C(O)C1O (stereo partly specified) :: 288% [at 11.5 µM] (inactive)
4) C/C=C(\C)C(=O)OC[C@H]1O[C@@H](O[C@H]2[C@@H](O[C@H]3O[C@H](CO)[C@@H](O)[C@H](O)[C@H]3O[C@@H]3O[C@H](CO)[C@@H](O)[C@H](O)[C@H]3O)O[C@H](COC(=O)/C(C)=C/C)[C@@H](O)[C@@H]2O)[C@H](O)[C@@H](O)[C@@H]1O :: -18.3% [at 11.5 µM] (inactive)
5) CC[C@H](C)[C@H](NC(=O)[C@H](Cc1ccc(O)cc1)NC(=O)[C@@H](N)C(C)C)C(=O)N[C@@H](Cc1cnc[nH]1)C(=O)N1CCC[C@H]1C(=O)N[C@@H](Cc1ccccc1)C(=O)O :: 19.3% [at 6.41 µM] (inactive)
6) C[C@@H]1O[C@@H](O[C@H]2[C@H](OC(=O)[C@]34CCC(C)(C)C[C@H]3C3=CCC5[C@@]6(C)C[C@@H](O)[C@@H](O)[C@@](C)(CO)C6[C@H](O)C[C@@]5(C)[C@]3(C)CC4)OC[C@H](O)[C@@H]2O)[C@H](O)[C@H](O)[C@H]1O[C@@H]1OC[C@@H](O)[C@H](O[C@H]2O[C@H](C)[C@@H](O)[C@H](O)[C@@H]2O)[C@H]1O (stereo partly specified) :: 381% [at 11.5 µM] (inactive)

----------
# Tested on: SKOV3
# PROTOCOL_DESCRIPTION: Primary qHTS to identify gynecologic anti-cancer compounds using libraries of approved drugs and bioactive compounds (AID 1345084); also: % is scaled to controls: 0 for no effect and ±100 for the full control effect; nearly all actives have a fitted effect of over 55% in size
# TEST_SETTINGS: Gynecologic cancer cell panel viability, ATPlite luminescence, 48 h; series mostly up to 57.5 µM
# Description: National Center for Advancing Translational Sciences [NCATS] Assay Overview: Chemotherapeutic drug responses vary from cancer to cancer and from patient to patient. […] ATPlite is a luminescence based assay reliant on the conversion of a luciferase substrate to light in the presence of ATP. As a cytotoxic compound will suppress growth and decrease the number of cells, the concentration of ATP will decrease, and less light signal will be detected in the well. […]
Results filed as inconclusive are left out. Active and inactive are the calls of the source. Calls follow the shape of the dose curve; as a rule, active = well fitted cell-killing curve with a large enough effect; inconclusive = small, poorly fitted or top-dose-only effect, or effect the other way; inactive = flat fitted curve, though single readings scatter.
QUANTITY_NAME: activity change, negative = cytotoxicity

1. CC1C2=CC(=O)OC2(O)CC2C1CCC1C(C)(C)CCC(O)C21C (stereo not drawn) :: inactive
2. CC(C)=CCC(O)[C@](C)(O)C1[C@H](O)C[C@@]2(C)C3CC=C4C(C[C@H](O)[C@@H](O[C@@H]5O[C@H](CO)[C@@H](O)[C@H](O)[C@H]5O)C4(C)C)[C@]3(C)C(=O)C[C@]12C (stereo partly drawn) :: inactive
3. C[C@]12CCC[C@](C)(C(=O)O)C1[C@@H](O)[C@@H](O)C13CC(CCC12)C(CO)(O[C@@H]1O[C@H](CO)[C@@H](O)[C@H](O)[C@H]1O)C3 (stereo partly drawn) :: inactive
4. Cc1ccc(Nc2nnc(-c3ccc([N+](=O)[O-])cc3)o2)cc1Cl :: inactive
5. C/C=C(\C)C(=O)OC[C@H]1O[C@@H](O[C@H]2[C@@H](O[C@H]3O[C@H](COC(=O)/C(C)=C/C)[C@@H](O)[C@H](O)[C@H]3O[C@@H]3O[C@H](COC(=O)/C(C)=C/C)[C@@H](O)[C@H](OC(=O)/C(C)=C/C)[C@H]3O)O[C@H](COC(=O)/C(C)=C/C)[C@@H](O)[C@@H]2O)[C@H](O)[C@@H](O)[C@@H]1O :: -1.49% [at 11.6 µM] (inactive)
6. CC(O)C/C=C/C=C/C(=O)OC1C=C2COC(=O)C2(O)C2(C)CCCC(C)(C)C12 (stereo not drawn) :: inactive
7. C=C1CC2C3(C)C=CC(=O)OC(C)(C)C3CC(OC(C)=O)C2(C)C2C(=O)OC(C)C(=O)C12C (stereo not drawn) :: inactive
8. CC1(C)CC[C@]2(C(=O)O[C@@H]3O[C@H](CO)[C@@H](O)[C@H](O)[C@H]3O)CC[C@]3(C)C(=CCC4[C@@]5(C)CC[C@H](O[C@H]6O[C@H](CO)[C@@H](O)[C@H](O[C@@H]7O[C@H](CO)[C@@H](O)[C@H](O)[C@H]7O)[C@H]6O)C(C)(C)C5CC[C@]43C)[C@@H]2C1 (stereo partly drawn) :: -4.14% [at 11.6 µM] (inactive)
9. NC1(c2ccc(NC(=O)c3ccnc(-c4cc(C(=O)O)ccn4)c3)cc2)CC1 :: inactive
10. C[C@]12CC[C@@H]3c4ccc(O)cc4CC[C@H]3[C@@H]1C[C@@H](O[C@@H]1O[C@H](C(=O)O)[C@@H](O)[C@H](O)[C@H]1O)[C@@H]2O :: inactive
11. CCC(C)C(C(=O)O)N1Cc2c(OCC=C(C)C)c(C)c(OC)c(C(=O)O)c2C1=O (stereo not drawn) :: inactive
12. C/C=C/C=C/C=C/C(=O)N(C)C(C(=O)NC(C)C(=O)N1CCCC1C(N)=O)C(C)C (stereo not drawn) :: inactive
13. N#Cc1ccc(C2CCCc3cncn32)cc1 (stereo not drawn) :: inactive

----------
# PROTOCOL_DESCRIPTION: Primary fluorescence-based thiol-reactive (MSTI) qHTS assay for identification of artifact compounds. (AID 1845221);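 also: thiol-reactive compounds lower the probe fluorescence signal; nearly all actives have a fitted effect of over 65% in size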
# TEST_SETTINGS: MSTI thiol-reactivity probe, 1 h; series mostly up to 53.8 µM
Records with an inconclusive call do not appear. The source made the active and inactive calls. Calls come from the whole dose curve; as a rule, active = well fitted inhibition curve with a large enough effect; inconclusive = small, poorly fitted or top-dose-only effect; inactive = no such curve, though single readings can be large or run the other way.
Reported activity change, negative = thiol reactive values for the following compounds.
QUANTITY_NAME: activity change, negative = thiol reactive

1) COC1CC(O[C@H]2CC[C@@]3(C)C(=CC[C@]4(O)C3[C@H](O)[C@@H](O)[C@]3(C)[C@@H]([C@H](C)O)CC[C@@]34O)C2)OC(C)C1OC1CC(OC)C(OC2CC(OC)C(OC3OC(C)C(OC4OC(CO)C(O)C(O)C4O)C(OC)C3O)C(C)O2)C(C)O1 (some centres not stated) :: 43.2% [at 11.5 µM] (inactive)
2) C[C@@H]1O[C@@H](O[C@H]2[C@H](O)[C@@H](O[C@@H]3O[C@H](CO)[C@H](O)[C@H](O)[C@H]3O)[C@H](O[C@H]3CC[C@@]4(C)C(CC[C@]5(C)C4CC=C4[C@@H]6CC(C)(C)CC[C@]6(C(=O)O[C@@H]6O[C@H](CO)[C@@H](O)[C@H](O)[C@H]6O)CC[C@]45C)C3(C)C)O[C@@H]2C(=O)O)[C@H](O)[C@H](O)[C@H]1O (some centres not stated) :: 349% [at 11.5 µM] (inactive)
